# Lookup of reported PC-3 flu Tumor keyed by entry
System: PC-3 PIP/flu tumor-bearing mice
Assay: Biodistribution studies in PC-3 PIP/flu tumor-bearing mice
Conditions: 24 h p.i.
result_type: PC-3 flu Tumor (% IA/g)

>>> value_observed("O=C(O)CCC(NC(=O)NC(CCCCNC(=O)C(Cc1ccc2ccccc2c1)NC(=O)C1CCC(CNC(=O)C(CCCCNC(=O)CN2CCN(CC(=O)O)CCN(CC(=O)O)CCN(CC(=O)O)CC2)NC(=O)CC(NC(=O)CC(NC(=O)CCCc2ccc(I)cc2)C(=O)O)C(=O)O)CC1)C(=O)O)C(=O)O (stereo not shown) [^177Lu-PSMA-ALB-05, metal not drawn]")
0.59
>>> value_observed("O=C(O)CCC(NC(=O)NC(CCCCNC(=O)C(Cc1ccc2ccccc2c1)NC(=O)C1CCC(CNC(=O)C(CCCCNC(=O)CCCc2ccc(I)cc2)NC(=O)CN2CCN(CC(=O)O)CCN(CC(=O)O)CCN(CC(=O)O)CC2)CC1)C(=O)O)C(=O)O (stereo not shown) [^177Lu-PSMA-ALB-03, metal not drawn]")
5.47
>>> value_observed("O=C(O)CCC(NC(=O)NC(CCCCNC(=O)C(Cc1ccc2ccccc2c1)NC(=O)C1CCC(CNC(=O)C(CCCCNC(=O)CN2CCN(CC(=O)O)CCN(CC(=O)O)CCN(CC(=O)O)CC2)NC(=O)CC(NC(=O)CC(NC(=O)CC(NC(=O)CCCc2ccc(I)cc2)C(=O)O)C(=O)O)C(=O)O)CC1)C(=O)O)C(=O)O (stereo not shown) [^177Lu-PSMA-ALB-07, metal not drawn]")
0.80
>>> value_observed("O=C(O)CCC(NC(=O)NC(CCCCNC(=O)C(Cc1ccc2ccccc2c1)NC(=O)C1CCC(n2cc(CC(NC(=O)CN3CCN(CC(=O)O)CCN(CC(=O)O)CCN(CC(=O)O)CC3)C(=O)NC(CCCCNC(=O)CCCc3ccc(I)cc3)C(=O)O)nn2)CC1)C(=O)O)C(=O)O (stereo not shown) [^177Lu-PSMA-ALB-01, metal not drawn]")
3.95
>>> value_observed("O=C(O)CCC(NC(=O)NC(CCCCNC(=O)C(Cc1ccc2ccccc2c1)NC(=O)C1CCC(CNC(=O)C(CCCCNC(=O)CN2CCN(CC(=O)O)CCN(CC(=O)O)CCN(CC(=O)O)CC2)NC(=O)CCCCCCC(=O)NC(CCCCNC(=O)CCCc2ccc(I)cc2)C(=O)O)CC1)C(=O)O)C(=O)O (stereo not shown) [^177Lu-PSMA-ALB-04, metal not drawn]")
14.0
>>> value_observed("Cc1ccc(CCCC(=O)NC(CC(=O)NC(CC(=O)NC(CC(=O)NC(CCCCNC(=O)CN2CCN(CC(=O)O)CCN(CC(=O)O)CCN(CC(=O)O)CC2)C(=O)NCC2CCC(C(=O)NC(Cc3ccc4ccccc4c3)C(=O)NCCCCC(NC(=O)NC(CCC(=O)O)C(=O)O)C(=O)O)CC2)C(=O)O)C(=O)O)C(=O)O)cc1 (stereo not shown) [^177Lu-PSMA-ALB-08, metal not drawn]")
0.09
>>> value_observed("Cc1ccc(CCCC(=O)NCCCCC(NC(=O)CN2CCN(CC(=O)O)CCN(CC(=O)O)CCN(CC(=O)O)CC2)C(=O)NCC2CCC(C(=O)NC(Cc3ccc4ccccc4c3)C(=O)NCCCCC(NC(=O)NC(CCC(=O)O)C(=O)O)C(=O)O)CC2)cc1 (stereo not shown) [^177Lu-PSMA-ALB-06, metal not drawn]")
0.79

---

Reported Salivary glands values for the following molecules.
System: PC-3 PIP/flu tumor-bearing mice
Assay: Biodistribution studies in PC-3 PIP/flu tumor-bearing mice
Settings: 96 h p.i.
result_type: Salivary glands

>>> value_observed("O=C(O)CCC(NC(=O)NC(CCCCNC(=O)C(Cc1ccc2ccccc2c1)NC(=O)C1CCC(CNC(=O)C(CCCCNC(=O)CN2CCN(CC(=O)O)CCN(CC(=O)O)CCN(CC(=O)O)CC2)NC(=O)CC(NC(=O)CC(NC(=O)CCCc2ccc(I)cc2)C(=O)O)C(=O)O)CC1)C(=O)O)C(=O)O (stereo not shown) [^177Lu-PSMA-ALB-05, metal not drawn]")
"0.46 ± 0.10 % IA/g"
>>> value_observed("O=C(O)CCC(NC(=O)NC(CCCCNC(=O)C(Cc1ccc2ccccc2c1)NC(=O)C1CCC(CNC(=O)C(CCCCNC(=O)CN2CCN(CC(=O)O)CCN(CC(=O)O)CCN(CC(=O)O)CC2)NC(=O)CCCCCCC(=O)NC(CCCCNC(=O)CCCc2ccc(I)cc2)C(=O)O)CC1)C(=O)O)C(=O)O (stereo not shown) [^177Lu-PSMA-ALB-04, metal not drawn]")
"4.08 ± 0.44 % IA/g"
>>> value_observed("O=C(O)CCC(NC(=O)NC(CCCCNC(=O)C(Cc1ccc2ccccc2c1)NC(=O)C1CCC(n2cc(CC(NC(=O)CN3CCN(CC(=O)O)CCN(CC(=O)O)CCN(CC(=O)O)CC3)C(=O)NC(CCCCNC(=O)CCCc3ccc(I)cc3)C(=O)O)nn2)CC1)C(=O)O)C(=O)O (stereo not shown) [^177Lu-PSMA-ALB-01, metal not drawn]")
"2.22 ± 0.38 % IA/g"
>>> value_observed("O=C(O)CCC(NC(=O)NC(CCCCNC(=O)C(Cc1ccc2ccccc2c1)NC(=O)C1CCC(CNC(=O)C(CCCCNC(=O)CCCc2ccc(I)cc2)NC(=O)CN2CCN(CC(=O)O)CCN(CC(=O)O)CCN(CC(=O)O)CC2)CC1)C(=O)O)C(=O)O (stereo not shown) [^177Lu-PSMA-ALB-03, metal not drawn]")
"2.19 ± 0.1 % IA/g"

---

Test system: PC-3 PIP/flu tumor-bearing mice
Assay: Biodistribution studies in PC-3 PIP/flu tumor-bearing mice
Conditions: 24 h p.i.
result_type: Bone (% IA/g)

>>> value_observed("O=C(O)CCC(NC(=O)NC(CCCCNC(=O)C(Cc1ccc2ccccc2c1)NC(=O)C1CCC(CNC(=O)C(CCCCNC(=O)CN2CCN(CC(=O)O)CCN(CC(=O)O)CCN(CC(=O)O)CC2)NC(=O)CC(NC(=O)CC(NC(=O)CC(NC(=O)CCCc2ccc(I)cc2)C(=O)O)C(=O)O)C(=O)O)CC1)C(=O)O)C(=O)O (stereo not shown) [^177Lu-PSMA-ALB-07, metal not drawn]")
0.31
>>> value_observed("O=C(O)CCC(NC(=O)NC(CCCCNC(=O)C(Cc1ccc2ccccc2c1)NC(=O)C1CCC(CNC(=O)C(CCCCNC(=O)CN2CCN(CC(=O)O)CCN(CC(=O)O)CCN(CC(=O)O)CC2)NC(=O)CC(NC(=O)CC(NC(=O)CCCc2ccc(I)cc2)C(=O)O)C(=O)O)CC1)C(=O)O)C(=O)O (stereo not shown) [^177Lu-PSMA-ALB-05, metal not drawn]")
0.31
>>> value_observed("O=C(O)CCC(NC(=O)NC(CCCCNC(=O)C(Cc1ccc2ccccc2c1)NC(=O)C1CCC(CNC(=O)C(CCCCNC(=O)CN2CCN(CC(=O)O)CCN(CC(=O)O)CCN(CC(=O)O)CC2)NC(=O)CCCCCCC(=O)NC(CCCCNC(=O)CCCc2ccc(I)cc2)C(=O)O)CC1)C(=O)O)C(=O)O (stereo not shown) [^177Lu-PSMA-ALB-04, metal not drawn]")
8.88
>>> value_observed("Cc1ccc(CCCC(=O)NCCCCC(NC(=O)CN2CCN(CC(=O)O)CCN(CC(=O)O)CCN(CC(=O)O)CC2)C(=O)NCC2CCC(C(=O)NC(Cc3ccc4ccccc4c3)C(=O)NCCCCC(NC(=O)NC(CCC(=O)O)C(=O)O)C(=O)O)CC2)cc1 (stereo not shown) [^177Lu-PSMA-ALB-06, metal not drawn]")
0.41
>>> value_observed("O=C(O)CCC(NC(=O)NC(CCCCNC(=O)C(Cc1ccc2ccccc2c1)NC(=O)C1CCC(CNC(=O)C(CCCCNC(=O)CCCc2ccc(I)cc2)NC(=O)CN2CCN(CC(=O)O)CCN(CC(=O)O)CCN(CC(=O)O)CC2)CC1)C(=O)O)C(=O)O (stereo not shown) [^177Lu-PSMA-ALB-03, metal not drawn]")
2.02
>>> value_observed("O=C(O)CCC(NC(=O)NC(CCCCNC(=O)C(Cc1ccc2ccccc2c1)NC(=O)C1CCC(n2cc(CC(NC(=O)CN3CCN(CC(=O)O)CCN(CC(=O)O)CCN(CC(=O)O)CC3)C(=O)NC(CCCCNC(=O)CCCc3ccc(I)cc3)C(=O)O)nn2)CC1)C(=O)O)C(=O)O (stereo not shown) [^177Lu-PSMA-ALB-01, metal not drawn]")
1.58
>>> value_observed("Cc1ccc(CCCC(=O)NC(CC(=O)NC(CC(=O)NC(CC(=O)NC(CCCCNC(=O)CN2CCN(CC(=O)O)CCN(CC(=O)O)CCN(CC(=O)O)CC2)C(=O)NCC2CCC(C(=O)NC(Cc3ccc4ccccc4c3)C(=O)NCCCCC(NC(=O)NC(CCC(=O)O)C(=O)O)C(=O)O)CC2)C(=O)O)C(=O)O)C(=O)O)cc1 (stereo not shown) [^177Lu-PSMA-ALB-08, metal not drawn]")
0.07
